Cited source: patent US10836747B2

# Weight increase at relative humidity of 90% (%) values compiled below
protocol-summary: Evaluation of hygroscopicity (DVS; dynamic vapor sorption)
Type: physicochemical
experimental-context: DVS, 25° C., relative to weight at 0% RH after drying
Answer format: value, then unit.

COc1cc2nccc(Oc3ccc(NC(=O)c4cc5c(n(-c6ccccc6)c4=O)CCCC5=O)nc3)c2cc1OC.O=S(=O)(O)c1ccccc1 [Benzensuplhonate]; 7.2%

stdin: Which Weight increase at relative humidity of 90% (%) value is on record for CCS(=O)(=O)O.COc1cc2nccc(Oc3ccc(NC(=O)c4cc5c(n(-c6ccccc6)c4=O)CCCC5=O)nc3)c2cc1OC [Ethanesulfonate] ?
stdout: 0.7%

stdin: Which Weight increase at relative humidity of 90% (%) value is on record for COc1cc2nccc(Oc3ccc(NC(=O)c4cc5c(n(-c6ccccc6)c4=O)CCCC5=O)nc3)c2cc1OC.Cl [Hydrochloride] ?
stdout: 8.0%

stdin: Which Weight increase at relative humidity of 90% (%) value is on record for COc1cc2nccc(Oc3ccc(NC(=O)c4cc5c(n(-c6ccccc6)c4=O)CCCC5=O)nc3)c2cc1OC.O=P(O)(O)O [Phosphate] ?
stdout: 5.5%

###

# Weight increase at relative humidity of 90% (%) values compiled below
protocol-summary: Evaluation of hygroscopicity (DVS; dynamic vapor sorption)
Type: physicochemical
experimental-context: DVS, 25° C., relative to weight at 0% RH after drying
A number alone suffices; assume %.

Look over these answered cases.
COc1cc2nccc(Oc3ccc(NC(=O)c4cc5c(n(-c6ccccc6)c4=O)CCCC5=O)nc3)c2cc1OC.Cc1ccc(S(=O)(=O)O)cc1 [P-toluenesulfonate]; 2.6
COc1cc2nccc(Oc3ccc(NC(=O)c4cc5c(n(-c6ccccc6)c4=O)CCCC5=O)nc3)c2cc1OC.CS(=O)(=O)O [Methanesulfonate]; 4.0
COc1cc2nccc(Oc3ccc(NC(=O)c4cc5c(n(-c6ccccc6)c4=O)CCCC5=O)nc3)c2cc1OC.O=S(=O)(O)O [Sulfate]; 7.2
COc1cc2nccc(Oc3ccc(NC(=O)c4cc5c(n(-c6ccccc6)c4=O)CCCC5=O)nc3)c2cc1OC.O=S(=O)(O)CCS(=O)(=O)O [Ethanedisulfonate]; 46.4

Turning now to a further record.
stdin: Which Weight increase at relative humidity of 90% (%) value is on record for COc1cc2nccc(Oc3ccc(NC(=O)c4cc5c(n(-c6ccccc6)c4=O)CCCC5=O)nc3)c2cc1OC.O=S(=O)(O)CCO [Isethionate] ?
stdout: 14.5
